biological target: Glucose transporter (Leishmania mexicana); test: ST_JUDE_LEISH: Cytotoxicity at 2uM final concentration against transgenic Leishmania Mexicana promastigotes LmGT2 that are glucose transport deficient and complemented with the L. Mexicana glucose transporter 2. Activity is measured by DNA content using SYBR green in vitro; type: functional
This listing pairs molecules with measured inhibition.

MOLECULE	inhibition [%]
CCCN(CCC)C(=O)c1cc(C(=O)N[C@@H](Cc2ccccc2)[C@H](O)CNCc2cccc(OC)c2)cc(N2CCCCS2(=O)=O)c1	5.14
Cc1nc(C)c(-c2ccc(Oc3ccc([S+](C)[O-])cc3)cc2)c(O)c1Br (centres undefined)	3.99
c1ccc(-c2cc(NCCCCNc3cc(-c4ccccc4)nc4ccccc34)c3ccccc3n2)cc1	6.81
CC1(C)N=C(N)N=C(N)N1OCCc1ccc2ccccc2c1	3.22
COc1ccc2nccc([C@@H](O)CN3CCC(NCc4cc5cc([N+](=O)[O-])ccc5[nH]4)CC3)c2c1	4.29
O=C(Nc1ccc(C(=O)N2CCN(CCN3CCN(c4cccc(C(F)(F)F)c4)CC3)CC2)cc1)c1cc(Cl)cc(Cl)c1	2.52
Cc1ccc(-c2nc3cc(C(=O)NC4CCC(N5CCCc6ccc(C#N)cc6C5)CC4)ccc3[nH]2)cc1 (centres undefined)	5.12
CCc1n[nH]c(C(=O)Nc2cccc(N3CCCC3)c2)c1C	-1.36
CN(CCCN(C)c1cc(NC(=O)c2cccc(F)c2)ccn1)Cc1cccc(O)c1	-0.68

---

Entries annotated with measured inhibition
target: Glucose transporter (Leishmania mexicana) (UniProt O61059); assay: ST_JUDE_LEISH: Cytotoxicity at 2uM final concentration against transgenic Leishmania Mexicana promastigotes LmGT2 that are glucose transport deficient and complemented with the L. Mexicana glucose transporter 2. Activity is measured by DNA content using SYBR green in vitro; format: functional
QUANTITY KIND: inhibition

MOLECULE	OBSERVED RESULT
COc1ccc(-c2ccc(CNC3Cc4ccccc4C3)cc2)cc1S(=O)(=O)NCCN1CCCC1	-0.28%
Cc1ccc2nc3sc(C(=O)NCCCN4CCC(N5CCCCC5)CC4)cc3cc2c1	3.19%
CNc1ccc(CNCc2cccc(-c3ccc(-c4nc5ccccc5[nH]4)cc3)c2)cc1	-1.34%
CCc1ccc(Cc2cnc3nc(N)nc(N)c3c2C)cc1	8.26%
Fc1ccc2[nH]c(-c3cccc(-c4cccc(CNCC5CCCO5)c4)c3)nc2c1 (stereo not given)	-1.55%

---

molecular target: Glucose transporter (Leishmania mexicana) (UniProt O61059); assay: ST_JUDE_LEISH: Cytotoxicity at 2uM final concentration against transgenic Leishmania Mexicana promastigotes LmGT2 that are glucose transport deficient and complemented with the L. Mexicana glucose transporter 2. Activity is measured by DNA content using SYBR green in vitro; assay type: functional
QUANTITY KIND: inhibition (%)

COMPOUND	QUANTITY KIND	OBSERVED RESULT
CCOc1cc(C(=O)Nc2ccc(-c3nc4ccccc4[nH]3)cc2)cc(OCC)c1OCC	inhibition	2.55
C=CCOC(=O)N1CCC(CNCc2cccc(-c3cccc(-c4nc5cc(F)ccc5[nH]4)c3)c2)C1 (stereo not given)	inhibition	-0.93
CN1CCC(N2CCN(Cc3ccc(-c4ccc(-c5nc6cc(F)ccc6[nH]5)s4)cc3)CC2)CC1	inhibition	-0.25
Cc1n[nH]c(C)c1C1CCN(CC2CCC(NC(=O)/C=C/c3ccc(Cl)c(Cl)c3)CC2)CC1 (stereo not given)	inhibition	5.93
CCn1c(-c2nonc2N)nc2c(-c3cccc(Cl)c3)ncc(OCCCNCCc3c[nH]cn3)c21	inhibition	3.45

---

target: Glucose transporter (Leishmania mexicana); assay: ST_JUDE_LEISH: Cytotoxicity at 2uM final concentration against transgenic Leishmania Mexicana promastigotes LmGT2 that are glucose transport deficient and complemented with the L. Mexicana glucose transporter 2. Activity is measured by DNA content using SYBR green in vitro; assay type: functional

COMPOUND	UNIT NAME	inhibition
COc1cc(F)c2ncc(Cl)c([C@H](O)CN3CCC(NCc4cc5c(cn4)OCCO5)CC3)c2c1	%	2.15
O=C(NC1CCN(Cc2ccc(Cl)cc2)CC1)c1cn(-c2ccccc2)nc1-c1cccnc1	%	1.49
COc1ccc(S(=O)(=O)NCC2CCCN(CCCCCNC(=O)/C=C/c3ccc(Cl)c(Cl)c3)C2)cc1 (centres undefined)	%	3.47
CCOc1cc2ncnc(Nc3cc(Cl)c(Cl)c(Cl)c3)c2cc1OCC	%	1.59
Oc1ccc(CCNc2nc(NCc3ccccc3-c3ccc(F)cc3)nc(N3CCNCC3)n2)cc1	%	6.39
CCCCCCN1CCCN(Cc2ccc(C(=O)Nc3ccc(C)c(F)c3)cc2)CC1	%	13.7
Cc1ccc(Cn2c(N3CCC(C(=O)NCc4ccccn4)CC3)nc3ccccc32)cc1	%	7.97
CN(Cc1cccc(O)c1)C1CCN(c2cc(NC(=O)c3ccc(F)cc3)ccn2)C1 (centres undefined)	%	3.61
COc1ccc2nccc([C@@H](O)CN3CCC(NC(=O)C(c4cc5ccccc5o4)N4CCN(c5ccccc5OC)CC4)CC3)c2c1 (some centres undefined)	%	-0.23

---

molecular target: Hexose transporter 1 (Plasmodium falciparum) (UniProt O97467); assay: ST_JUDE_LEISH: Cytotoxicity at 2uM final concentration against transgenic Leishmania Mexicana promastigotes LmPfHT that are glucose transport deficient and complemented with the Plasmodium falciparum hexose transporter. Activity is measured by DNA content using SYBR green in vitro; type: functional

COMPOUND	UNIT NAME	inhibition
CC(C)CCNC(=N)c1ccc(OCCCCCOc2ccc(C(=N)NCCC(C)C)cc2)cc1	%	12.5
O=S(=O)(NC1CCN(c2ccnc3cc(Cl)ccc23)C1)c1ccc(F)cc1 (stereo not given)	%	1.68
N=C1C=C(N)C(=O)c2ccccc21	%	100
Cc1cccc2nc(-c3ccc(-c4ccc(NC(=O)Nc5ccc(Cl)c(Cl)c5)cc4)s3)[nH]c12	%	1.27
Brc1cc(CNCCCNc2nc3ccccc3[nH]2)sc1Br	%	9.1
CCOC(=O)c1ccc(NC(=O)Nc2ccc(-c3cccc(-c4nc5cccc(C)c5[nH]4)c3)cc2)cc1	%	-0.4
CC(C)(C)c1ccc(-c2nnc(N)nc2N)cc1	%	0.43
COc1cc2c(OC)cccc2cc1CNCCCCCCNCc1cc2cccc(OC)c2cc1OC	%	6.08
N=C(N)NN=Cc1cc2ccccc2c2ccccc12	%	9.7
O=S1(=O)NCc2ccc(Nc3nccc(Nc4ccc5c(cnn5Cc5ccccc5)c4)n3)cc21	%	6.35

---

target: Solute carrier family 2, facilitated glucose transporter member 1 (Homo sapiens); assay: ST_JUDE_LEISH: Cytotoxicity at 2uM final concentration against transgenic Leishmania Mexicana promastigotes LmGLUT1 that are glucose transport deficient and complemented with the human glucose transporter GLUT1. Activity is measured by DNA content using SYBR green in vitro; format: functional

MOLECULE	inhibition / %
CCCCCCNC(=O)C1Cc2c([nH]c3ccc(Br)cc23)C2(CCN(Cc3ccccc3)CC2)N1 (stereo not given)	45.6
CCCCNc1nccc2ccc(-c3ccncc3)cc12	3.45
O=C(/C=C/c1ccc(Cl)c(Cl)c1)NC1CCC(CN2CCC(c3nc4ccccc4n3CCCO)CC2)CC1 (stereo not given)	0.86
COc1ccc(CCC(C)(C)NCC(O)c2cccc(C(F)(F)F)c2)cc1 (stereo not given)	3.28
O=C(/C=C/c1ccc(Cl)cc1)Nc1ccc2nc(CN3CCCC3)ccc2c1	5.3
CCn1c(Sc2ccc(C#N)c([N+](=O)[O-])c2)nnc1-c1cccc(Cl)c1	16.9
c1ccc(Oc2ccc(Nc3ccnc4ccc(-c5ccccn5)cc34)cc2)cc1	2.62
CCOc1ccc(C=CC(=O)Nc2ccc3nc(N4CCN(C)CC4)cc(C)c3c2)cc1OC	3
Cc1ccc(NS(=O)(=O)c2ccc(-c3ccccc3)cc2)c(Cn2cnc(N3CCCNCC3)cc2=O)c1	4.14
CCNc1cc(C)nc(Nc2ccc(NC(=O)c3ccco3)cc2)n1	4.54
FC(F)(F)c1cccc(CNC2CCN(CC3CCCCC3)CC2)c1	5.19
CC(CN1CCN(C)CC1)C(=O)Nc1ccc(-c2ccc(-c3nc4cc(F)ccc4[nH]3)cc2)cc1 (stereo not given)	9.06
COc1ccc(CNC2CCN(C)CC2)cc1-c1ccc(S(=O)(=O)NC2CCC2)c(F)c1	0.83
O=C(Nc1ccc(-c2csc(-c3nc4ccccc4[nH]3)c2)cc1)Nc1ccc(Cl)c(Cl)c1	1.35
CCOC(=O)c1ccc(COc2ccc(C)nc2)cc1	-1.54
N#Cc1ccc(-c2ccc(C(=O)NCCCCN3CCC(c4cc(Br)c5c(c4OCC(N)=O)CCCC5)CC3)cc2)cc1	2.88
CCCCCCN1CCCN(Cc2ccc(C(=O)Nc3ccc(C(C)C)cc3)cc2)CC1	5.84
CC1CCCN(c2ccc(NC(=O)c3cccs3)cc2[N+](=O)[O-])C1 (stereo not given)	1.22
CCCC(C)n1ccc2c3c(N)nc(N)nc3ccc21 (stereo not given)	47.3
O=C(Nc1ccc(-c2csc(-c3nc4ccccc4[nH]3)c2)cc1)Nc1ccc(F)c(F)c1F	0.67
CCOc1ccccc1C=CC(=O)Nc1ccc2nc(N3CCN(C)CC3)cc(C)c2c1	5.87
O=C(NCCCCCN1CCC(c2c[nH]c3ccccc23)C1)Nc1ccc(Cl)c(Cl)c1 (stereo not given)	3.7
COc1ccc(CNC(=O)Nc2cc3cc(-c4ccc(CN(C)C)cc4)ccc3n3c(C)nnc23)cc1	4.84
CCOc1ccc2nc(C)cc(N/N=C/c3cccc([N+](=O)[O-])c3)c2c1	0.39
Cc1nc(C)c(-c2ccc(Oc3ccc(OC(F)(F)F)cc3)cc2)c(O)c1I	-0.28
CC(C)(C)c1ccc(-c2nc3c(ccc4nc(N)nc(N)c43)[nH]2)cc1	-1
O=C(Nc1ccc(Cl)c(C(F)(F)F)c1)NC1CCN(CCCCCNC(=O)C2CC2c2ccc(Cl)c(Cl)c2)CC1 (stereo not given)	7.55
CCOc1ccc(Br)cc1/C=C/C(=O)Nc1ccc2c(c1)CN(C)CCC2	4.12
COc1ccc(NC(=O)C2CCN(CCCCCNC(=O)/C=C/c3ccc(Cl)c(Cl)c3)CC2)cc1	2.19
COc1ccc(CNCc2cccc(-c3ccc(-c4nc5ccccc5[nH]4)cc3)c2)cc1	3.35
Cc1cc(Nc2ccc(OCc3ccccc3Cl)cc2)c2cc(Cl)ccc2n1	19.8
O=C(NCCN1CCCC1)c1cccc(-c2ccc(-c3nc4ccccc4[nH]3)s2)c1	3.42
Cc1cc(O)c(CNC2CCCCC2)cc1C	1.17
Cc1ccnc2nc(C(=O)Nc3cc(C(F)(F)F)ccc3N3CCCCC3)nn12	1.48
CN1CCN(S(=O)(=O)c2cccc(Nc3nccc(N(C)c4ccc5c(c4)nc(NC(=O)c4cccs4)n5C)n3)c2)CC1	-0.55
CCCCCCNc1cc(C)nc(NC(=N)Nc2cccc(C(F)(F)F)c2)n1	1.36
COc1ccc(Cc2cnc3nc(N)nc(N)c3c2C)cc1	39.5
CCNc1cc(C(=O)N[C@@H](Cc2ccccc2)[C@H](O)CNCCc2ccccc2)cc(N2CCCCS2(=O)=O)c1	-0.52
COc1cccc(C(=O)NC(c2ccccc2OC)c2cc(Cl)c3cccnc3c2O)c1 (stereo not given)	-1.87
COc1cc2c(cc1N1CCN(C)CC1)N(C(=O)Nc1ccc(-c3ccncc3)c(Cl)c1Cl)CC2	0.34

Where do the numbers come from? From ChEMBL document CHEMBL3433997.
